species on record: Rattus norvegicus; assay: Open TG-GATES - Regimen: Single; assay type: toxicity, organism-based, Sprague-Dawley; parameters: regimen Single, gender Male, age 6 weeks; conditions: in vivo, po, 0 mg/kg, 3 h, tissue Plasma, route gavage, dose level Control
Please provide measured Cl for the entries that follow.
Numbers only, in meq/L.

Study these solved cases before continuing.
compound | Cl (meq/L)
CCCc1cc(=O)[nH]c(=S)[nH]1 | 105
CCOc1ccc(NC(C)=O)cc1 | 105.4
CC(C)NNC(=O)c1ccncc1 | 107.6
O=C(OC[C@H]1O[C@@H](OC(=O)c2cc(O)c(O)c(OC(=O)c3cc(O)c(O)c(O)c3)c2)[C@H](OC(=O)c2cc(O)c(O)c(OC(=O)c3cc(O)c(O)c(O)c3)c2)[C@@H](OC(=O)c2cc(O)c(O)c(OC(=O)c3cc(O)c(O)c(O)c3)c2)[C@@H]1OC(=O)c1cc(O)c(O)c(OC(=O)c2cc(O)c(O)c(O)c2)c1)c1cc(O)c(O)c(OC(=O)c2cc(O)c(O)c(O)c2)c1 | 103.2

Could you now consider this next compound?
CN1C(=O)CCS(=O)(=O)C1c1ccc(Cl)cc1 (stereo not given) has a reported Cl of 106.2

* * *

species on record: Rattus norvegicus; assay: Open TG-GATES - Regimen: Daily Repeat; type: toxicity, organism-based, Sprague-Dawley; parameters: regimen Daily Repeat, gender Male, age 6 weeks; details: in vivo, po, 0 mg/kg, […], tissue Plasma, route gavage, dose level Control, time 14 day
quantity: IP

Study these solved cases before continuing.
molecule | observed-measurement
CNC(=C[N+](=O)[O-])NCCSCc1ccc(CN(C)C)o1 | 7.2 mg/dL
Brc1ccccc1 | 6.8 mg/dL
CN(C)CCC(c1ccc(Cl)cc1)c1ccccn1 (stereo not given) | 6.9 mg/dL

Working through the 2 molecules below one at a time, give IP for each.
1. CCOc1ccc(NC(C)=O)cc1
2. Cc1nnc2n1-c1ccc(Cl)cc1C(c1ccccc1Cl)=NC2

### Response
1: 7.1 mg/dL; 2: 7.1 mg/dL

* * *

species on record: Rattus norvegicus; experiment: Open TG-GATES - Regimen: Single; format: toxicity, organism-based, Sprague-Dawley; parameters: regimen Single, gender Male, age 6 weeks; conditions: in vivo, po, 0 mg/kg, 3 h, tissue Plasma, route gavage, dose level Control
quantity: IP (mg/dL)
Answers are plain numbers, in mg/dL.

Working through the 4 molecules below one at a time, give IP for each.
1. CCOc1ccc(NC(C)=O)cc1
2. NC1=NC(=O)C(c2ccccc2)O1 (centres undefined)
3. Cc1nnc2n1-c1ccc(Cl)cc1C(c1ccccc1Cl)=NC2
4. CN/C(=N/CCSCc1nc[nH]c1C)NC#N

### Response
1: 8.8; 2: 8.8; 3: 9.1; 4: 8.8

* * *

species: Rattus norvegicus; test: Open TG-GATES - Regimen: Single; assay type: toxicity, organism-based, Sprague-Dawley; parameters: regimen Single, gender Male, age 6 weeks; details: in vivo, po, 0 mg/kg, 24 h, tissue Blood, route gavage, dose level Control
quantity: PT (s)
Give bare numbers, in s.

compound | units-of-measure | observed-measurement
CN1C(=O)CCS(=O)(=O)C1c1ccc(Cl)cc1 (stereo not given) | s | 13

Working through the 2 compounds below one at a time, give PT for each.
1. Brc1ccccc1
2. CCOc1ccc(NC(C)=O)cc1

### Response
[12.3, 13.6]

Working through the 2 compounds below one at a time, give PT for each.
1. CNC(=C[N+](=O)[O-])NCCSCc1ccc(CN(C)C)o1
2. NC1=NC(=O)C(c2ccccc2)O1 (stereo not given)

### Response
1: 11.9; 2: 13

Hello, the source for this data is ChEMBL document CHEMBL3885861, in case you need it.
